Hey, just so you know, these numbers are from ChEMBL document CHEMBL3297654.

# Tested on: Bacillus thuringiensis
# PROTOCOL_DETAILS: Antimicrobial activity against Bacillus thuringiensis for 24 hrs by microdillution method
# Type: functional
Activity calls are given as the source filed them. No cut-off for these calls is given here.

CHEMICAL_STRING: CC1(C)CC[C@]2(C(=O)OCc3ccccc3)CC[C@]3(C)C(=CC[C@@H]4[C@@]5(C)CC[C@H](O)[C@@](C)(/C=N/NC(N)=S)[C@@H]5CC[C@]43C)[C@@H]2C1
MIC: inactive
--
CHEMICAL_STRING: CN[C@@H]1[C@H](O[C@H]2[C@H](O[C@H]3[C@H](O)[C@@H](O)[C@H](N=C(N)N)[C@@H](O)[C@@H]3N=C(N)N)O[C@@H](C)[C@]2(O)C=O)O[C@@H](CO)[C@H](O)[C@H]1O
MIC: 64 µg/mL
--
CHEMICAL_STRING: CC(=O)O[C@H]1CC[C@]2(C)[C@H]3CC=C4[C@@H]5CC(C)(C)CC[C@]5(C(=O)OCc5ccccc5)CC[C@@]4(C)[C@]3(C)CC[C@H]2[C@]1(C)/C=N/O
MIC: inactive
--
CHEMICAL_STRING: CC(=O)O[C@H]1CC[C@]2(C)[C@H]3CC=C4[C@@H]5CC(C)(C)CC[C@]5(C(=O)O)CC[C@@]4(C)[C@]3(C)CC[C@H]2[C@]1(C)C=O
MIC: 128 µg/mL
--
CHEMICAL_STRING: CC(=O)O[C@H]1CC[C@]2(C)[C@H]3CC=C4[C@@H]5CC(C)(C)CC[C@]5(C(=O)O)CC[C@@]4(C)[C@]3(C)CC[C@H]2[C@]1(C)/C=N\O
MIC: 64 µg/mL
--
CHEMICAL_STRING: CC(=O)O[C@H]1CC[C@]2(C)[C@H]3CC=C4[C@@H]5CC(C)(C)CC[C@]5(C(=O)O)CC[C@@]4(C)[C@]3(C)CC[C@H]2[C@]1(C)/C=N/NC(N)=S
MIC: 32 µg/mL
--
CHEMICAL_STRING: CC1(C)CC[C@]2(C(=O)OCc3ccccc3)CC[C@]3(C)C(=CC[C@@H]4[C@@]5(C)CC[C@H](O)[C@@](C)(C=O)[C@@H]5CC[C@]43C)[C@@H]2C1
MIC: inactive
--
CHEMICAL_STRING: CC(=O)O[C@H]1CC[C@]2(C)[C@H]3CC=C4[C@@H]5CC(C)(C)CC[C@]5(C(=O)OCc5ccccc5)CC[C@@]4(C)[C@]3(C)CC[C@H]2[C@]1(C)C=O
MIC: inactive
--
CHEMICAL_STRING: CC1(C)CC[C@]2(C(=O)O)CC[C@]3(C)C(=CC[C@@H]4[C@@]5(C)CC[C@H](O)[C@@](C)(C=O)[C@@H]5CC[C@]43C)[C@@H]2C1
MIC: 32 µg/mL
--
CHEMICAL_STRING: CC1(C)CC[C@]2(C(=O)O)CC[C@]3(C)C(=CC[C@@H]4[C@@]5(C)CC[C@H](O)[C@@](C)(/C=N/O)[C@@H]5CC[C@]43C)[C@@H]2C1
MIC: 128 µg/mL
--
CHEMICAL_STRING: CC1(C)CC[C@]2(C(=O)OCc3ccccc3)CC[C@]3(C)C(=CC[C@@H]4[C@@]5(C)CC[C@H](O)[C@@](C)(/C=N/O)[C@@H]5CC[C@]43C)[C@@H]2C1
MIC: inactive

* * *

# System: MCF7
# PROTOCOL_DETAILS: Induction of apoptosis in human MCF7 cells at 20 uM after 48 hrs by Hoechst 33258/propidium iodide staining based phase contrast microscopic analysis
# Assay type: functional
Threshold check on Activity: at or above 10% gives yes, strictly below gives no.

CHEMICAL_STRING: CC(=O)O[C@H]1CC[C@]2(C)[C@H]3CC=C4[C@@H]5CC(C)(C)CC[C@]5(C(=O)O)CC[C@@]4(C)[C@]3(C)CC[C@H]2[C@]1(C)/C=N/NC(N)=S
SYSTEM_TESTED: MCF7
GROUP: no

CHEMICAL_STRING: CC1(C)CC[C@]2(C(=O)OCc3ccccc3)CC[C@]3(C)C(=CC[C@@H]4[C@@]5(C)CC[C@H](O)[C@@](C)(C=O)[C@@H]5CC[C@]43C)[C@@H]2C1
SYSTEM_TESTED: MCF7
GROUP: no

CHEMICAL_STRING: CC1(C)CC[C@]2(C(=O)O)CC[C@]3(C)C(=CC[C@@H]4[C@@]5(C)CC[C@H](O)[C@@](C)(/C=N/O)[C@@H]5CC[C@]43C)[C@@H]2C1
SYSTEM_TESTED: MCF7
GROUP: yes

CHEMICAL_STRING: CC(=O)O[C@H]1CC[C@]2(C)[C@H]3CC=C4[C@@H]5CC(C)(C)CC[C@]5(C(=O)O)CC[C@@]4(C)[C@]3(C)CC[C@H]2[C@]1(C)/C=N\O
SYSTEM_TESTED: MCF7
GROUP: no

* * *

# Tested on: MCF7
# PROTOCOL_DETAILS: Induction of apoptosis in human MCF7 cells at 20 uM after 48 hrs by Hoechst 33258/propidium iodide staining based phase contrast microscopic analysis
# Type: functional
Below: a set of entries, each annotated with reported Activity.
PROPERTY: Activity (%)

CHEMICAL_STRING: CC1(C)CC[C@]2(C(=O)O)CC[C@]3(C)C(=CC[C@@H]4[C@@]5(C)CC[C@H](O)[C@@](C)(C=O)[C@@H]5CC[C@]43C)[C@@H]2C1
PROPERTY: Activity
OBS_VALUE: 30
//
CHEMICAL_STRING: CC(=O)O[C@H]1CC[C@]2(C)[C@H]3CC=C4[C@@H]5CC(C)(C)CC[C@]5(C(=O)O)CC[C@@]4(C)[C@]3(C)CC[C@H]2[C@]1(C)C=O
PROPERTY: Activity
OBS_VALUE: 5
//
CHEMICAL_STRING: CC1(C)CC[C@]2(C(=O)OCc3ccccc3)CC[C@]3(C)C(=CC[C@@H]4[C@@]5(C)CC[C@H](O)[C@@](C)(/C=N/NC(N)=S)[C@@H]5CC[C@]43C)[C@@H]2C1
PROPERTY: Activity
OBS_VALUE: 4
//
CHEMICAL_STRING: CC1(C)CC[C@]2(C(=O)OCc3ccccc3)CC[C@]3(C)C(=CC[C@@H]4[C@@]5(C)CC[C@H](O)[C@@](C)(/C=N/O)[C@@H]5CC[C@]43C)[C@@H]2C1
PROPERTY: Activity
OBS_VALUE: 12
//
CHEMICAL_STRING: CC(=O)O[C@H]1CC[C@]2(C)[C@H]3CC=C4[C@@H]5CC(C)(C)CC[C@]5(C(=O)OCc5ccccc5)CC[C@@]4(C)[C@]3(C)CC[C@H]2[C@]1(C)C=O
PROPERTY: Activity
OBS_VALUE: 5

* * *

# Tested on: Caco-2
# PROTOCOL_DETAILS: Induction of apoptosis in human Caco2 cells at 20 uM after 48 hrs by Hoechst 33258/propidium iodide staining based phase contrast microscopic analysis
# Type: functional

CHEMICAL_STRING: CC(=O)O[C@H]1CC[C@]2(C)[C@H]3CC=C4[C@@H]5CC(C)(C)CC[C@]5(C(=O)O)CC[C@@]4(C)[C@]3(C)CC[C@H]2[C@]1(C)C=O
Activity: 3%
//
CHEMICAL_STRING: CC(=O)O[C@H]1CC[C@]2(C)[C@H]3CC=C4[C@@H]5CC(C)(C)CC[C@]5(C(=O)O)CC[C@@]4(C)[C@]3(C)CC[C@H]2[C@]1(C)/C=N/NC(N)=S
Activity: 3%
//
CHEMICAL_STRING: CC1(C)CC[C@]2(C(=O)O)CC[C@]3(C)C(=CC[C@@H]4[C@@]5(C)CC[C@H](O)[C@@](C)(/C=N/O)[C@@H]5CC[C@]43C)[C@@H]2C1
Activity: 23%

* * *

Below: a set of entries, each annotated with reported Activity.
# System: Caco-2
# PROTOCOL_DETAILS: Induction of apoptosis in human Caco2 cells at 20 uM after 48 hrs by Hoechst 33258/propidium iodide staining based phase contrast microscopic analysis
# Format: functional

CHEMICAL_STRING: CC1(C)CC[C@]2(C(=O)OCc3ccccc3)CC[C@]3(C)C(=CC[C@@H]4[C@@]5(C)CC[C@H](O)[C@@](C)(/C=N/O)[C@@H]5CC[C@]43C)[C@@H]2C1
Activity (%): 11
//
CHEMICAL_STRING: CC(=O)O[C@H]1CC[C@]2(C)[C@H]3CC=C4[C@@H]5CC(C)(C)CC[C@]5(C(=O)OCc5ccccc5)CC[C@@]4(C)[C@]3(C)CC[C@H]2[C@]1(C)C=O
Activity (%): 1
//
CHEMICAL_STRING: CC1(C)CC[C@]2(C(=O)OCc3ccccc3)CC[C@]3(C)C(=CC[C@@H]4[C@@]5(C)CC[C@H](O)[C@@](C)(/C=N/NC(N)=S)[C@@H]5CC[C@]43C)[C@@H]2C1
Activity (%): 4
//
CHEMICAL_STRING: CC1(C)CC[C@]2(C(=O)O)CC[C@]3(C)C(=CC[C@@H]4[C@@]5(C)CC[C@H](O)[C@@](C)(C=O)[C@@H]5CC[C@]43C)[C@@H]2C1
Activity (%): 20
